Values from patent US6890920B2

Experiment: Pharmacokinetics of inhaled quaternary ammonium salts, plasma levels
Format: in vivo, Balb/c mice
Details: Balb/c, mouse, plasma, inhaled; inhalation of 1.44 mg/ml, 12 h; read-out: Plasma concentration ± std dev
Description: Blood samples were taken from the mice in example II via cardiac puncture under isoflurane anesthesia at 2.5 minutes, 10 minutes, 30 minutes, 2 hours, 4 hours, 8 hours, or 12 hours after aerosol drug treatment. The samples were collected in tubes containing EDTA and centrifuged at 12000×g for four minutes. Plasma was removed and stored at −70° C. until assay. Plasma samples were extracted via a liquid/liquid extraction technique. […] The limit of quantitation was 24 pg/ml.
measured.property: concentration at 12 h (ng/mL)

[
  {
    "compound": "Cc1ccc(O)c([C@H](CC[N+](C)(C(C)C)C(C)C)c2ccccc2)c1.[I-] [Example 2]",
    "measured.property": "concentration at 12 h",
    "display.unit": "ng/mL",
    "number": 0.042
  }
]
